Provide the recorded IC50 for the entries that follow.

Task item: Please tell me: IC50 of CN(C)C(=O)c1cccc(-c2cccc(-c3csc(NC(=O)CNC(=O)c4ccc(N)cc4)n3)c2)c1 , system BRG-1 (Homo sapiens)?
Reply: < 100 nM

Task item: Please tell me: IC50 of Nc1ccc(C(=O)NCC(=O)Nc2nc(-c3ccc4cc[nH]c(=O)c4c3)cs2)cc1 , system BRG-1 (Homo sapiens)?
Reply: < 100 nM

Task item: Please tell me: IC50 of NCCn1ccc(-c2cccc(-c3csc(NC(=O)CNC(=O)c4ccc(N)cc4)n3)c2)cc1=O , system BRG-1 (Homo sapiens)?
Reply: 100 to 1000 nM

Task item: Please tell me: IC50 of Nc1ccc(C(=O)NCC(=O)Nc2nc(-c3cccc(-c4cccc(F)c4)c3)cs2)cc1 , system BRG-1 (Homo sapiens)?
Reply: 100 to 1000 nM

Task item: Please tell me: IC50 of NCCOc1cc(-c2cccc(-c3csc(NC(=O)CNC(=O)c4ccc(N)cc4)n3)c2)ccn1 , system BRG-1 (Homo sapiens)?
Reply: 100 to 1000 nM

Task item: Please tell me: IC50 of CCC[C@H](NC(=O)c1cccc(S(=O)(=O)N(C)C)c1)C(=O)Nc1nc(-c2ccccc2)cs1 , system BRG-1 (Homo sapiens)?
Reply: > 10000 nM

Task item: Please tell me: IC50 of CO[C@H]1CCCN(c2cccc(-c3csc(NC(=O)CNC(=O)c4ccc(N)cc4)n3)c2)C1 , system BRG-1 (Homo sapiens)?
Reply: 100 to 1000 nM

---

biological target: BRG-1 (Homo sapiens); test: ATPase catalytic activity of BRG-1 (ADP-Glo in vitro biochemical assay); details: Table 6
Sequence (P51532 whole entry): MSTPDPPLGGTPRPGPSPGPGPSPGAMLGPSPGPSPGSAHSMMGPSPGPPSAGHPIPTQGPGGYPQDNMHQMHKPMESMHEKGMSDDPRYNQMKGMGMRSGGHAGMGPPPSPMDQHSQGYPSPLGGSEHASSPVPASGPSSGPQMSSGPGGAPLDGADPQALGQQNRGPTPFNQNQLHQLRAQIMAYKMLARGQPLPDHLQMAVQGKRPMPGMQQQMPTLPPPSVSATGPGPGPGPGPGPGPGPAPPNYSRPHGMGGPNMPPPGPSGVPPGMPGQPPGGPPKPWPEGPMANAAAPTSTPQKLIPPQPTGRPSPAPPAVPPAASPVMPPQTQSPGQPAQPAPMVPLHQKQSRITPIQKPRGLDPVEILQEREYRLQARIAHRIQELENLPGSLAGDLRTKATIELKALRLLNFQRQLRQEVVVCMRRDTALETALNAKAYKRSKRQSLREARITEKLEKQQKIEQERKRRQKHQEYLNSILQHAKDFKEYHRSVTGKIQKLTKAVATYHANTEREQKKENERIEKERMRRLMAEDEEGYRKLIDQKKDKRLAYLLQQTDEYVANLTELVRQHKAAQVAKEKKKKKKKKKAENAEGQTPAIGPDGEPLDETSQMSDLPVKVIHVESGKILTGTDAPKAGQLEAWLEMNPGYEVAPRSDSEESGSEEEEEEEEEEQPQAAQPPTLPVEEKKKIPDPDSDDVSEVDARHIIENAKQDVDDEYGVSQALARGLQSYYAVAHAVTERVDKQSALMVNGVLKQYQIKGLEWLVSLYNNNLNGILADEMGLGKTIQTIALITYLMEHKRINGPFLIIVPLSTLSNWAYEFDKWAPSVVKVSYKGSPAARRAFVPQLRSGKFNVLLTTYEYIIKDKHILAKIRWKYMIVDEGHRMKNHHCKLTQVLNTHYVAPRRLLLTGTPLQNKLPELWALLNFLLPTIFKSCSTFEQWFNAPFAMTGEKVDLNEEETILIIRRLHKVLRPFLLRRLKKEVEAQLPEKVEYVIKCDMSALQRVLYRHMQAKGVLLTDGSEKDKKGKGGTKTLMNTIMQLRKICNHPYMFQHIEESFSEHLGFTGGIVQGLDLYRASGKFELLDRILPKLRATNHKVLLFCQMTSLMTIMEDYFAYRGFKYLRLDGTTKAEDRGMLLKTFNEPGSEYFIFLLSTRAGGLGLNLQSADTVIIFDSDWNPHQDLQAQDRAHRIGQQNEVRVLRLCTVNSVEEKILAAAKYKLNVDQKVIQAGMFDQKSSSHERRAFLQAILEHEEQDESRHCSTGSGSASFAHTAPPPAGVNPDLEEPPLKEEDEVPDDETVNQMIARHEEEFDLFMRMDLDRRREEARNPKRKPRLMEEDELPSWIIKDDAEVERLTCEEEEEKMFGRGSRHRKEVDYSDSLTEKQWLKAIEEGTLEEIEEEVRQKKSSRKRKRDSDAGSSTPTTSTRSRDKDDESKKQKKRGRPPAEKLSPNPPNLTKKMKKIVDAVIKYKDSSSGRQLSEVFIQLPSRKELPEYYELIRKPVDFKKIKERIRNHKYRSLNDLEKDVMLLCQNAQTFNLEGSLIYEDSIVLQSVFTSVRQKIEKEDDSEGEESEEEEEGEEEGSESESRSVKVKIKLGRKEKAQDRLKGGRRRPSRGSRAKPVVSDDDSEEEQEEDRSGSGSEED
property.measured: BRG1 Max % Inhibition

Task item: Please tell me: BRG1 Max % Inhibition of NCCNc1cc(-c2cccc(-c3csc(NC(=O)CNC(=O)c4ccc(N)cc4)n3)c2)ccn1 [Compound 160] , system BRG-1 (Homo sapiens)?
Reply: >95%,

Task item: Please tell me: BRG1 Max % Inhibition of Nc1ccc(C(=O)NCC(=O)Nc2nc(-c3cccc(-c4cccc(O)c4)c3)cs2)cc1 [Compound 141] , system BRG-1 (Homo sapiens)?
Reply: >95%

Task item: Please tell me: BRG1 Max % Inhibition of NC[C@H]1CC[C@H](c2cccc(-c3csc(NC(=O)CNC(=O)c4ccc(N)cc4)n3)c2)CC1 [Compound 174] , system BRG-1 (Homo sapiens)?
Reply: >80%

Task item: Please tell me: BRG1 Max % Inhibition of COC(=O)C(C)(C)c1cc(-c2cccc(-c3csc(NC(=O)CNC(=O)c4ccc(N)cc4)n3)c2)ccn1 [Compound 182] , system BRG-1 (Homo sapiens)?
Reply: >90%

---

biological target: BRM (Homo sapiens); assay: ATPase catalytic activity of BRM (ADP-Glo in vitro biochemical assay); details: Table 6
Sequence (P51531 whole entry): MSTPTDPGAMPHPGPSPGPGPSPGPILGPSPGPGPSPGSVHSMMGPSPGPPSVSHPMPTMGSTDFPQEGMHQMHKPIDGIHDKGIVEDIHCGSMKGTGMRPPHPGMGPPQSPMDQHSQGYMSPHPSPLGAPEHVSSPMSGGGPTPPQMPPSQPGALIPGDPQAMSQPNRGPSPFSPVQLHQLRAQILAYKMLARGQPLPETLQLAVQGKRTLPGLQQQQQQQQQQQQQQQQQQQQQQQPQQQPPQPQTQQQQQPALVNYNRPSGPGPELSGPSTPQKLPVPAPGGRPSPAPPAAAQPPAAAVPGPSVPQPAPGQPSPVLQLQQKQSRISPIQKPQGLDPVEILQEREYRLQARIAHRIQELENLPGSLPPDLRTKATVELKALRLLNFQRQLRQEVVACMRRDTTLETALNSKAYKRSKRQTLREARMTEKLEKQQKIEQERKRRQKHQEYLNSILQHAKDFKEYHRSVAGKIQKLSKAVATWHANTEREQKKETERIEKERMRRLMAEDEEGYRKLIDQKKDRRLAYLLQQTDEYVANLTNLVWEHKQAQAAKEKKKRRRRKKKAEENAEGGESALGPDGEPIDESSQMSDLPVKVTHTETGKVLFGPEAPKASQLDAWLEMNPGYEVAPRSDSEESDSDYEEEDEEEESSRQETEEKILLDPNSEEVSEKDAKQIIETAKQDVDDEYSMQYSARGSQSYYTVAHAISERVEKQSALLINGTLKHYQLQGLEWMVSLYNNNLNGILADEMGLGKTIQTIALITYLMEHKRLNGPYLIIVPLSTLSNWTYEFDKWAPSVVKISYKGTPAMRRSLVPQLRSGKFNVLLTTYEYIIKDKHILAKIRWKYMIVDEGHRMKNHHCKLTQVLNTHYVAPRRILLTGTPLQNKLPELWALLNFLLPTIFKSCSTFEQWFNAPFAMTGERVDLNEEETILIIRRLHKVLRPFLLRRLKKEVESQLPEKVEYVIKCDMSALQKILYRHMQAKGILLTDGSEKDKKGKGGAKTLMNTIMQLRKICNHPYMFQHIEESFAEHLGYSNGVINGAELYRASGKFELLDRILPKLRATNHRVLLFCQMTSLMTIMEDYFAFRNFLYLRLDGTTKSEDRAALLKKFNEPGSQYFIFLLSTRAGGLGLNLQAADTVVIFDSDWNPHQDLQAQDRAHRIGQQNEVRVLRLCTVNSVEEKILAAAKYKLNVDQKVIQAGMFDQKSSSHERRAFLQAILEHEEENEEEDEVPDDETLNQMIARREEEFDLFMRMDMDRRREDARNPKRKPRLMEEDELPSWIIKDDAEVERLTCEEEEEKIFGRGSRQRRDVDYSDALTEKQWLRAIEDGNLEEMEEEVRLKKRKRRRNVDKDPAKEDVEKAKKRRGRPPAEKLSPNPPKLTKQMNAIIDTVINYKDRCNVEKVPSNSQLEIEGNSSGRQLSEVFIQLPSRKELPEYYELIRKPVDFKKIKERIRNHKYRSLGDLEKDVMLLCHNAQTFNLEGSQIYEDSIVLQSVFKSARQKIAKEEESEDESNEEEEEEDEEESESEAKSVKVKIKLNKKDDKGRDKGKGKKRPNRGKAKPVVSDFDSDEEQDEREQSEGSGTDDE
property.measured: BRM Max % Inhibition

Task item: Can you share its BRM Max % Inhibition? I mean this compound: Nc1ccc(C(=O)NCC(=O)Nc2nc(-c3cccc(-c4ccncn4)c3)cs2)cc1 [Compound 227]
Reply: >95%

Task item: Can you share its BRM Max % Inhibition? I mean this compound: Nc1ccc(C(=O)N[C@@H](CO)C(=O)Nc2nc(-c3cccc(-c4ccncc4)c3)cs2)cc1 [Compound 172]
Reply: >95%

Task item: Can you share its BRM Max % Inhibition? I mean this compound: NCC1CCC(c2cccc(-c3csc(NC(=O)CNC(=O)c4ccc(N)cc4)n3)c2)CC1 (stereo not drawn) [Compound 169]
Reply: >95%

Task item: Can you share its BRM Max % Inhibition? I mean this compound: CSCC[C@H](NC(=O)c1ccc(N)cc1)C(=O)Nc1nc(-c2cccc(CNC(C)=O)c2)cs1 [Compound 120]
Reply: >90%

Task item: Can you share its BRM Max % Inhibition? I mean this compound: COC(=O)Cc1cc(-c2cccc(-c3csc(NC(=O)CNC(=O)c4ccc(N)cc4)n3)c2)ccn1 [Compound 177]
Reply: >95%

Task item: Can you share its BRM Max % Inhibition? I mean this compound: CC(=O)N(C)Cc1cccc(-c2cccc(-c3csc(NC(=O)CNC(=O)c4ccc(N)cc4)n3)c2)c1 [Compound 129]
Reply: >95%

Task item: Can you share its BRM Max % Inhibition? I mean this compound: Nc1ccc(C(=O)NCC(=O)Nc2nc(-c3ccc4cc[nH]c(=O)c4c3)cs2)cc1 [Compound 147]
Reply: >95%

Task item: Can you share its BRM Max % Inhibition? I mean this compound: CSCC[C@H](NC(=O)c1ccc(N)cc1)C(=O)Nc1nc(-c2ccc(CNC(C)=O)cc2)cs1 [Compound 121]
Reply: >95%

Task item: Can you share its BRM Max % Inhibition? I mean this compound: Nc1ccc(C(=O)NCC(=O)Nc2nc(-c3cccc(-c4ccn(C5CCOCC5)n4)c3)cs2)cc1 [Compound 162]
Reply: >95%

Task item: Can you share its BRM Max % Inhibition? I mean this compound: NC[C@H]1CC[C@H](c2cccc(-c3csc(NC(=O)CNC(=O)c4ccc(N)cc4)n3)c2)CC1 [Compound 174]
Reply: >80%

Task item: Can you share its BRM Max % Inhibition? I mean this compound: CC(C)(O)c1cccc(-c2csc(NC(=O)CNC(=O)c3ccc(N)cc3)n2)c1 [Compound 198]
Reply: >80%

Task item: Can you share its BRM Max % Inhibition? I mean this compound: Nc1ccc(C(=O)NCC(=O)Nc2nc(-c3cccc(-c4cc[n+]([O-])cc4)c3)cs2)cc1 [Compound 156]
Reply: >95%

Task item: Can you share its BRM Max % Inhibition? I mean this compound: NCc1cccc(-c2cccc(-c3csc(NC(=O)CNC(=O)c4ccc(N)cc4)n3)c2)c1 [Compound 135]
Reply: >95%

Task item: Can you share its BRM Max % Inhibition? I mean this compound: Nc1ccc(C(=O)NCC(=O)Nc2nc(-c3cccc(-c4ccnc(C5(C(=O)O)CC5)c4)c3)cs2)cc1 [Compound 219]
Reply: >95%

Task item: Can you share its BRM Max % Inhibition? I mean this compound: CNC(=O)c1cccc(-c2cccc(-c3csc(NC(=O)CNC(=O)c4ccc(N)cc4)n3)c2)c1 [Compound 144]
Reply: >95%

Task item: Can you share its BRM Max % Inhibition? I mean this compound: Nc1ccc(C(=O)NCC(=O)Nc2nc(-c3ccc4[nH]ncc4c3)cs2)cc1 [Compound 192]
Reply: >90%

Task item: Can you share its BRM Max % Inhibition? I mean this compound: CNC(=O)C(C)(C)n1ccc(-c2cccc(-c3csc(NC(=O)CNC(=O)c4ccc(N)cc4)n3)c2)n1 [Compound 213]
Reply: >95%

Task item: Can you share its BRM Max % Inhibition? I mean this compound: CN(C)CCNC(=O)Cc1cc(-c2cccc(-c3csc(NC(=O)CNC(=O)c4ccc(N)cc4)n3)c2)ccn1 [Compound 186]
Reply: >95%

Task item: Can you share its BRM Max % Inhibition? I mean this compound: CSCC[C@H](NC(=O)c1ccc(N)cc1)C(=O)Nc1nc(-c2cccc(-c3ccc(CN)cc3)c2)cs1 [Compound 118]
Reply: >90%

Task item: Can you share its BRM Max % Inhibition? I mean this compound: CSCC[C@H](NC(=O)c1ccc(N)cc1)C(=O)Nc1nc(-c2cccc(-c3cccc(CN)c3)c2)cs1 [Compound 237]
Reply: >90%

Task item: Can you share its BRM Max % Inhibition? I mean this compound: Nc1ccc(C(=O)NCC(=O)Nc2nc(-c3cccc(-c4ccn(CC(F)(F)F)n4)c3)cs2)cc1 [Compound 151]
Reply: >80%

Task item: Can you share its BRM Max % Inhibition? I mean this compound: CO[C@H]1CCCN(c2cccc(-c3csc(NC(=O)CNC(=O)c4ccc(N)cc4)n3)c2)C1 [Compound 238]
Reply: >90%

Task item: Can you share its BRM Max % Inhibition? I mean this compound: CN(C)C(=O)c1cccc(-c2cccc(-c3csc(NC(=O)CNC(=O)c4ccc(N)cc4)n3)c2)c1 [Compound 131]
Reply: >95%

Task item: Can you share its BRM Max % Inhibition? I mean this compound: CN(C)CCn1ccc2ccc(-c3csc(NC(=O)CNC(=O)c4ccc(N)cc4)n3)cc2c1=O [Compound 167]
Reply: >95%

Task item: Can you share its BRM Max % Inhibition? I mean this compound: CN(C)Cc1ccc(-c2cccc(-c3csc(NC(=O)CNC(=O)c4ccc(N)cc4)n3)c2)cc1 [Compound 145]
Reply: >90%

Task item: Can you share its BRM Max % Inhibition? I mean this compound: Cc1cnccc1-c1cccc(-c2csc(NC(=O)CNC(=O)c3ccc(N)cc3)n2)c1 [Compound 194]
Reply: >90%

Task item: Can you share its BRM Max % Inhibition? I mean this compound: Nc1ccc(C(=O)NCC(=O)Nc2nc(-c3cccc(-c4cccc(C(=O)O)c4)c3)cs2)cc1 [Compound 136]
Reply: >95%

Task item: Can you share its BRM Max % Inhibition? I mean this compound: COc1cc(-c2cccc(-c3csc(NC(=O)CNC(=O)c4ccc(N)cc4)n3)c2)ccn1 [Compound 146]
Reply: >95%

Task item: Can you share its BRM Max % Inhibition? I mean this compound: CN(C)c1ccc(C(=O)NCC(=O)Nc2nc(-c3cccc(-c4ccncc4)c3)cs2)cc1 [Compound 132]
Reply: >80%

Task item: Can you share its BRM Max % Inhibition? I mean this compound: Nc1ccc(C(=O)NCC(=O)Nc2nc(-c3cncc(-c4ccncc4)c3)cs2)cc1 [Compound 208]
Reply: >90%

Reference for the values: patent US11497752B2
